Assay: Intrinsic clearance in human liver microsomes at 1 uM preincubated for 10 mins followed by NADPH addition and measured up to 45 mins by LC-MS/MS analysis
Type: ADME, Microsome
Conditions: 0.75 h
The compounds listed here are annotated with their Intrinsic clearance (CLint).

// below: answered compounds
smiles_repr	Intrinsic clearance (CLint)
C[C@@H]1O[C@H](CNS(=O)(=O)c2cc(Cl)c(Cl)s2)[C@@H](O)[C@H](O)[C@@H]1O	< 10 µL/min/mg
C[C@@H]1O[C@H](CNS(=O)(=O)c2ccc(C#Cc3ccccc3)s2)[C@@H](O)[C@H](O)[C@@H]1O	< 10 µL/min/mg
Cc1ccc(S(=O)(=O)NC[C@H]2O[C@@H](C)[C@@H](O)[C@@H](O)[C@@H]2O)s1	< 10 µL/min/mg
Cc1oncc1S(=O)(=O)NC[C@H]1O[C@@H](C)[C@@H](O)[C@@H](O)[C@@H]1O	< 10 µL/min/mg

Next, consider the following compound.
Challenge: I'd like to know its Intrinsic clearance (CLint). The compound in question is "Cc1cc(S(=O)(=O)NC[C@H]2O[C@@H](C)[C@@H](O)[C@@H](O)[C@@H]2O)c(C)s1"
Response given: < 10 µL/min/mg

----------
Molecular target: Fucose-binding lectin PA-IIL (Pseudomonas aeruginosa (strain ATCC 15692 / DSM 22644 / CIP 104116 / JCM14847 / LMG 12228 / 1C / PRS 101 / PAO1), UniProt Q9HYN5)
Sequence (Q9HYN5 1-115): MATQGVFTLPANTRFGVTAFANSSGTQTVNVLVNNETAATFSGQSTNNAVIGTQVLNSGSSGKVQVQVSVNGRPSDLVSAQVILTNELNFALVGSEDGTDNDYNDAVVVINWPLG
Assay: Inhibition of N-(fluorescein-5-yl)-N'-(alpha-L-fucopyranosyl ethylen)thiocarbamide binding to Pseudomonas aeruginosa PA14 LecB incubated for 22 to 24 hrs by fluorescence polarization assay
observation_type: IC50 (nM)
Please respond with the number in nM and leave the unit unwritten.

smiles_repr	IC50 [nM]
Cc1ccsc1S(=O)(=O)NC[C@H]1O[C@@H](C)[C@@H](O)[C@@H](O)[C@@H]1O	200
C[C@@H]1O[C@H](CNS(=O)(=O)c2ccco2)[C@@H](O)[C@H](O)[C@@H]1O	460
C[C@@H]1O[C@H](CNS(=O)(=O)c2ccc(/C=C\c3ccccc3)s2)[C@@H](O)[C@H](O)[C@@H]1O	440

Challenge: I'd like to know its IC50. The compound in question is "C[C@@H]1O[C@H](CNC(=O)c2cc3ccccc3o2)[C@@H](O)[C@H](O)[C@@H]1O"
Response given: 2410

----------
The molecules listed here are annotated with their Intrinsic clearance (CLint).
Assay: Intrinsic clearance in C57BL/6J mouse liver microsomes at 1 uM preincubated for 10 mins followed by NADPH addition and measured up to 45 mins by LC-MS/MS analysis
Format: ADME, Microsome
Settings: 0.75 h

smiles_repr	Intrinsic clearance (CLint)
C[C@@H]1O[C@H](CNS(=O)(=O)c2ccc(C#Cc3ccccc3)s2)[C@@H](O)[C@H](O)[C@@H]1O	< 10 µL/min/mg

Challenge: I'd like to know its Intrinsic clearance (CLint). The molecule in question is "Cc1ccc(S(=O)(=O)NC[C@H]2O[C@@H](C)[C@@H](O)[C@@H](O)[C@@H]2O)s1"
Response given: 10 µL/min/mg

Challenge: I'd like to know its Intrinsic clearance (CLint). The molecule in question is "Cc1cc(S(=O)(=O)NC[C@H]2O[C@@H](C)[C@@H](O)[C@@H](O)[C@@H]2O)c(C)s1"
Response given: < 10 µL/min/mg

Challenge: I'd like to know its Intrinsic clearance (CLint). The molecule in question is "Cc1oncc1S(=O)(=O)NC[C@H]1O[C@@H](C)[C@@H](O)[C@@H](O)[C@@H]1O"
Response given: < 10 µL/min/mg

Challenge: I'd like to know its Intrinsic clearance (CLint). The molecule in question is "C[C@@H]1O[C@H](CNS(=O)(=O)c2cc(Cl)c(Cl)s2)[C@@H](O)[C@H](O)[C@@H]1O"
Response given: < 10 µL/min/mg

----------
Molecular target: Fucose-binding lectin PA-IIL (Pseudomonas aeruginosa (strain ATCC 15692 / DSM 22644 / CIP 104116 / JCM14847 / LMG 12228 / 1C / PRS 101 / PAO1))
Experiment: Inhibition of N-(fluorescein-5-yl)-N'-(alpha-L-fucopyranosyl ethylen)thiocarbamide binding to Pseudomonas aeruginosa PA14 LecB incubated for 22 to 24 hrs by fluorescence polarization assay
The compounds listed here are annotated with their IC50.
Please respond with the number in nM and leave the unit unwritten.

// below: answered compounds
smiles_repr	observation_type	quantitative_result
Cc1cc(S(=O)(=O)NC[C@H]2O[C@@H](C)[C@@H](O)[C@@H](O)[C@@H]2O)c(C(F)(F)F)o1	IC50	460
CCc1ccc(S(=O)(=O)NC[C@H]2O[C@@H](C)[C@@H](O)[C@@H](O)[C@@H]2O)s1	IC50	380
COc1ccc(C#Cc2ccc(S(=O)(=O)NC[C@H]3O[C@@H](C)[C@@H](O)[C@@H](O)[C@@H]3O)s2)cc1	IC50	280

Challenge: I'd like to know its IC50. The compound in question is "Cc1cccc(C#Cc2ccc(S(=O)(=O)NC[C@H]3O[C@@H](C)[C@@H](O)[C@@H](O)[C@@H]3O)s2)c1"
Response given: 300
